Where do these numbers come from? They come from ChEMBL document CHEMBL2417469.

Listed here: items and their measured GI50.
# System: HCC 2998
# Method: Cytotoxicity against human HCC2998 cells after 48 hrs by SRB assay
# Format: functional
# Cond: HCC 2998, 48 h
State just the number; it will be interpreted in µM.

// solved cases for GI50 follow
molecule="Cc1ccc(C2CC(c3ccc(Nc4ccnc5cc(Cl)ccc45)cc3)=NN2C=O)cc1 (stereo unspecified)" recorded_result=7.44
molecule="O=CN1N=C(c2ccc(Nc3ccnc4cc(Cl)ccc34)cc2)CC1c1ccc(Cl)cc1 (stereo unspecified)" recorded_result=1.61
molecule="COc1cc(C2CC(c3cccc(Nc4ccnc5cc(Cl)ccc45)c3)=NN2C=O)cc(OC)c1OC (stereo unspecified)" recorded_result=2.16
molecule="COc1cc(C2CC(c3ccc(Nc4ccnc5cc(Cl)ccc45)cc3)=NN2C=O)cc(OC)c1OC (stereo unspecified)" recorded_result=5.52

Ask | Note GI50 for the molecule shown: O=CN1N=C(c2cccc(Nc3ccnc4cc(Cl)ccc34)c2)CC1c1ccccc1 (stereo unspecified)
Reply | 1.22

Ask | Note GI50 for the molecule shown: O=CN1N=C(c2cccc(Nc3ccnc4cc(Cl)ccc34)c2)CC1c1ccc(Cl)cc1 (stereo unspecified)
Reply | 3.36

---

Listed here: items and their measured log10 of GI50.
# Test system: SNB-19
# Method: Cytotoxicity against human SNB19 cells after 48 hrs by SRB assay
# Assay type: functional
# Cond: SNB-19, 48 h
Transform log10 | Measure GI50 | Unit µM

// solved cases for log10 of GI50 follow
compound="O=CN1N=C(c2cccc(Nc3ccnc4cc(Cl)ccc34)c2)CC1c1ccc(Cl)cc1 (stereo unspecified)" recorded_result=0.54
compound="COc1ccc(C2CC(c3cccc(Nc4ccnc5cc(Cl)ccc45)c3)=NN2C=O)cc1 (stereo unspecified)" recorded_result=-0.06
compound="COc1cc(C2CC(c3cccc(Nc4ccnc5cc(Cl)ccc45)c3)=NN2C=O)cc(OC)c1OC (stereo unspecified)" recorded_result=0.53
compound="O=CN1N=C(c2ccc(Nc3ccnc4cc(Cl)ccc34)cc2)CC1c1ccc(Cl)cc1 (stereo unspecified)" recorded_result=0.28
compound=COc1cccc2c1C(=O)c1c(O)c3c(c(O)c1C2=O)C[C@@](O)(C(=O)CO)C[C@@H]3O[C@H]1C[C@H](N)[C@H](O)[C@H](C)O1 recorded_result=-1.40
compound="O=CN1N=C(c2ccc(Nc3ccnc4cc(Cl)ccc34)cc2)CC1c1ccccc1 (stereo unspecified)" recorded_result=0.71
compound="O=CN1N=C(c2cccc(Nc3ccnc4cc(Cl)ccc34)c2)CC1c1ccccc1 (stereo unspecified)" recorded_result=-0.22
compound="COc1cc(C2CC(c3ccc(Nc4ccnc5cc(Cl)ccc45)cc3)=NN2C=O)cc(OC)c1OC (stereo unspecified)" recorded_result=1.26

Consider now this further compound.
Ask | Note log10 of GI50 for the compound shown: COc1ccc(C2CC(c3ccc(Nc4ccnc5cc(Cl)ccc45)cc3)=NN2C=O)cc1 (stereo unspecified)
Reply | 0.75

---

# Method: Cytotoxicity against human EKVX cells after 48 hrs by SRB assay
# Assay type: functional
Experimental readout: GI50 (µM)
State just the number; it will be interpreted in µM.

// solved cases for GI50 follow
compound="COc1cc(C2CC(c3ccc(Nc4ccnc5cc(Cl)ccc45)cc3)=NN2C=O)cc(OC)c1OC (stereo not drawn)" recorded_result=11.7
compound="O=CN1N=C(c2cccc(Nc3ccnc4cc(Cl)ccc34)c2)CC1c1ccccc1 (stereo not drawn)" recorded_result=0.95
compound="COc1cc(C2CC(c3cccc(Nc4ccnc5cc(Cl)ccc45)c3)=NN2C=O)cc(OC)c1OC (stereo not drawn)" recorded_result=0.98
compound=COc1cccc2c1C(=O)c1c(O)c3c(c(O)c1C2=O)C[C@@](O)(C(=O)CO)C[C@@H]3O[C@H]1C[C@H](N)[C@H](O)[C@H](C)O1 recorded_result=0.41
compound="COc1ccc(C2CC(c3cccc(Nc4ccnc5cc(Cl)ccc45)c3)=NN2C=O)cc1 (stereo not drawn)" recorded_result=0.64

Consider now this further compound.
Ask | Note GI50 for the compound shown: O=CN1N=C(c2ccc(Nc3ccnc4cc(Cl)ccc34)cc2)CC1c1ccccc1 (stereo not drawn)
Reply | 4.94
